Assay: pH-dependent solubility in USP buffers
Type: physicochemical
Conditions: standard USP buffer, aqueous buffer; pH 4.6, 24 h
assayMetric: solubility thermodynamic at 24 h

compound | assayMetric | result
C/C(=N\c1ccc(O)cc1)c1cc2ccccc2n1C [GT-14] | solubility thermodynamic at 24 h | ~140 µg/mL

###

Test: Lipophilicity (logP), octanol-water shake-flask method
Assay type: physicochemical
Settings: 1-octanol/water, room temperature, triplicate, read-out: experimental logP (octanol-water)
assayMetric: logP at 72 h

compound | quantitativeReadout
C/C(=N\c1ccc(O)cc1)c1cc2ccccc2n1C [GT-14] | 2.38

###

Test: Solubility in different solvents, shake-flask method
Format: physicochemical
Conditions: DMSO, thermodynamic from solid, room temperature, n=3, read-out: Solubility in DMSO
assayMetric: solubility at 24 h (mg/mL)

structureNotation | assayMetric | quantitativeReadout
C/C(=N\c1ccc(O)cc1)c1cc2ccccc2n1C | solubility at 24 h | 80
